Cited source for all entries: patent US5521196A

Target: 5-HT1F receptor (Homo sapiens)
Sequence (P30939 1-366): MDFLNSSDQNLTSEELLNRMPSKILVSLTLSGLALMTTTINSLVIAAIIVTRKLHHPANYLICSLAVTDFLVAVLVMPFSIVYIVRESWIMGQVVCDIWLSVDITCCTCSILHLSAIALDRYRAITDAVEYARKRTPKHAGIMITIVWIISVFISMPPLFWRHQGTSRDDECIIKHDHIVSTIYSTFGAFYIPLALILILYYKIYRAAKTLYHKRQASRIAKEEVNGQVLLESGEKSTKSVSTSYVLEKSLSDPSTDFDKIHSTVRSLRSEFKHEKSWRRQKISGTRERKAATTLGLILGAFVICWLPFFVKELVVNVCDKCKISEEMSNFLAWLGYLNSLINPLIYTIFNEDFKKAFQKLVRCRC
Assay: biochemical
Conditions: Table I; displacement of 4.5-5.5 nM [3H]5-HT, 37° C., 30 minutes; read-out: 5-HT1F BINDING Ki
READOUT_NAME: pKi
Give bare numbers, as −log10 of the molar value.

Known pKi results, listed for orientation:
CC(C)n1cc(CCN2CCC(c3c[nH]c4ccc(Br)cc34)CC2)cn1	8.30
Fc1ccc2[nH]cc(C3CCN(CCc4cnn(Cc5ccccc5)c4)CC3)c2c1	7.28
Clc1ccc(-n2cc(CCN3CCC(c4c[nH]c5ccc(Cl)cc45)CC3)cn2)cc1	6.79
Fc1ccc2[nH]cc(C3CCN(CCc4cnn(C5CCCCC5)c4)CC3)c2c1	7.48
Fc1ccc2[nH]cc(C3CCN(CCc4ccccn4)CC3)c2c1	7.57
Cn1cc(CCN2CCC(c3c[nH]c4ccc(Cl)cc34)CC2)cn1	8.77
CCCn1cc(CCN2CCC(c3c[nH]c4ccccc34)CC2)cn1	8.48
Cc1cccc(-n2cc(CCN3CCC(c4c[nH]c5ccc(Cl)cc45)CC3)cn2)c1	7.36

[in] Please look up its pKi: `Clc1ccc2[nH]cc(C3CCN(CCc4cnn(C5CCCCC5)c4)CC3)c2c1`
[out] 7.47

----------
Molecular target: 5-HT1F receptor (Homo sapiens)
Assay: biochemical
Conditions: Table I; displacement of 4.5-5.5 nM [3H]5-HT, 37° C., 30 minutes; read-out: 5-HT1F BINDING Ki
Counter-ions that a name gives are not always drawn.
Would you mind classing the entries by Ki? Ranges: range 1 = under 6 nM, range 2 = from 6 nM up to 10 nM, range 3 = 10 nM and over

See these solved cases before continuing.
CCCn1cc(CCN2CCC(c3c[nH]c4ccc(Cl)cc34)CC2)cn1	range 1
Clc1ccc2[nH]cc(C3CCN(CCc4cnn(CC5CC5)c4)CC3)c2c1 [Example 21, hydrochloride]	range 3
CCCn1cc(CCN2CCC(c3c[nH]c4ccc(Br)cc34)CC2)cn1	range 2

[in] Pick a category. Item: `c1ccc2c(C3CCN(CCc4cnn(C5CCCCC5)c4)CC3)c[nH]c2c1`
[out] range 3

[in] Please indicate the class for `CC(C)n1cc(CCN2CCC(c3c[nH]c4ccc(O)cc34)CC2)cn1` based on its Ki.
[out] range 1

[in] GET /class?item= `Fc1ccc(-n2cc(CCN3CCC(c4c[nH]c5ccc(Cl)cc45)CC3)cn2)cc1`
[out] range 3

[in] Pick a category. Item: `CC(C)n1cc(CCN2CC=C(c3c[nH]c4ccc(Cl)cc34)CC2)cn1`
[out] range 2

[in] Given `COc1ccc2[nH]cc(C3CCN(CCc4cnn(-c5ccccc5)c4)CC3)c2c1` , name the class its Ki places it in.
[out] range 2

[in] Assign a category based on measured Ki for `Fc1ccc2[nH]cc(C3CCN(CCc4ccncc4)CC3)c2c1` and give only the class name.
[out] range 1
